targetOrTestSystem: T1, mouse ACVR2A (mouse, UniProt P27038 20-135, limits assumed); further: test concentration or dose not given here
T1 construct: coated antigen of the initial ELISA
T1 sequence (P27038 20-135 limits assumed): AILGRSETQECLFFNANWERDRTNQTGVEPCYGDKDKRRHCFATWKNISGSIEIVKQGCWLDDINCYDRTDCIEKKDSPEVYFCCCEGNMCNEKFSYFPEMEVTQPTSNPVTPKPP
protocolText: ELISA
optical density values by entry
Write it as a number; the unit OD goes unstated.

[
  {
    "binder": "373_C03 (antibody, V domains shown, Group III) VH: EVQLLESGGGLVQPGGSLRLSCAASGFTFSSYSMNWVRQAPGKGLEWVSGINYNGGYKSYADSVKGRFTISRDNSKNTLYLQMNSLRAEDTAVYYCARGANWHDTALDYWGQGTLVTVSS VL: DIQMTQSPSSLSASVGDRVTITCRASQSIVTYLNWYQQKPGKAPKLVIYAATSRASGVPSRFSGSGSGTDFTLTISSLQPEDFATYYCQQSYDSPLTFGGGTKVEIK",
    "optical density / OD": 3.65
  },
  {
    "binder": "367_B04 (antibody, V domains shown, Group III) VH: EVQLLESGGGLVQPGGSLRLSCAASGFTFDSYSMNWVRQAPGKGLEWVSGINYNSGYKSYADSVKGRFTISRDNSKNTLYLQMNSLRAEDTAVYYCARGANWHDTHLDYWGQGTLVTVSS VL: DIQMTQSPSSLSASVGDRVTITCRASQSILSYLNWYQQKPGKAPKLLIYAATSRASGVPSRFSGSGSGTDFTLTISSLQPEDFATYYCQQSYELPLTFGGGTKVEIK",
    "optical density / OD": 3.1
  },
  {
    "binder": "372_B02 (antibody, V domains shown, Group III) VH: EVQLLESGGGLVQPGGSLRLSCAASGFTFSSYSMNWVRQAPGKGLEWVSGINYNSGYTSYADSVKGRFTISRDNSKNTLYLQMNSLRAEDTAVYYCARGANWHDTALDYWGQGTLVTVSS VL: DIQMTQSPSSLSASVGDRVTITCRASQSILSYVNWYQQKPGKAPKLLIYAVTSLASGVPSRFSGSGSGTDFTLTISSLQPEDFATYYCQQSYETPLTFGGGTKVEIK",
    "optical density / OD": 3.51
  },
  {
    "binder": "371_H08 (antibody, V domains shown, Group III) VH: EVQLLESGGGLVQPGGSLRLSCAASGFTFSSYGMNWVRQAPGKGLEWVASINYNGGYKGYADSVKGRFTISRDNSKNTLYLQMNSLRAEDTAVYYCARGANWHDTHLDYWGQGTLVTVSS VL: DIQMTQSPSSLSASVGDRVTITCRASQSIISYVNWYQQKPGKAPKLVIYAVTSRASGVPSRFSGSGSGTDFTLTISSLQPEDFATYYCQQSYDTPLTFGGGTKVEIK",
    "optical density / OD": 2.04
  },
  {
    "binder": "370_D05 (antibody, V domains shown, Group III) VH: EVQLLESGGGLVQPGGSLRLSCAASGFTFDDYSMNWVRQAPGKGLEWVSNINYNGGYKGYADSVKGRFTISRDNSKNTLYLQMNSLRAEDTAVYYCARGANWHDTALDYWGQGTLVTVSS VL: DIQMTQSPSSLSASVGDRVTITCRASQSIITYLNWYQQKPGKAPKLVIYAATSRHSGVPSRFSGSGSGTDFTLTISSLQPEDFATYYCQQSYDTPLTFGGGTKVEIK",
    "optical density / OD": 3.12
  }
]

Q: For the binder shown here, 375_F07 (antibody, V domains shown, Group III) VH: EVQLLESGGGLVQPGGSLRLSCAASGFTFSDYSMNWVRQAPGKGLEWVSNINYNGGYTGYADSVKGRFTISRDNSKNTLYLQMNSLRAEDTAVYYCARGANWHDTALDYWGQGTLVTVSS VL: DIQMTQSPSSLSASVGDRVTITCRASQSILSYLNWYQQKPGKAPKLLIYAATSRASGVPSRFSGSGSGTDFTLTISSLQPEDFATYYCQQSYDSPLTFGGGTKVEIK , give the reported optical density.
Ans: 3.71

Q: Would you mind telling me what optical density value was observed for 371_A10 (antibody, V domains shown, Group III) VH: EVQLLESGGGLVQPGGSLRLSCAASGFTFDDYSMNWVRQAPGKGLEWVSGINYNGGYKGYADSVKGRFTISRDNSKNTLYLQMNSLRAEDTAVYYCARGANWHDTALDYWGQGTLVTVSS VL: DIQMTQSPSSLSASVGDRVTITCRASQSIVSYLNWYQQKPGKAPKLVIYAATSRASGVPSRFSGSGSGTDFTLTISSLQPEDFATYYCQQSYENPLTFGGGTKVEIK ?
Ans: 2.78
